# experimental_details: Ocular tissue and plasma pharmacokinetics, 50 mg/kg BID oral, Dutch Belted rabbits (Example 4/5)
# Type: in vivo
# reported_conditions: male, Dutch Belted, rabbit, choroid-RPE, oral, 50 mg/kg, DB rabbits, Day 15, 50 mg/kg BID, 96 hr; read-out: Mean Choroid-RPE Concentration
reported_endpoint: concentration at 96 h

INSERT INTO measurements (cpd_smiles, result) VALUES
  ('CC(=O)c1nn(CC(=O)N2C[C@H](F)C[C@H]2C(=O)Nc2cccc(Br)n2)c2ccc(-c3cnc(C)nc3)cc12', '873 ng/g');

----------
# experimental_details: Ocular tissue and plasma pharmacokinetics, 50 mg/kg BID oral, Dutch Belted rabbits (Example 4/5)
# Assay type: in vivo
# reported_conditions: male, Dutch Belted, rabbit, choroid-RPE, po, 50 mg/kg, DB rabbit, 50 mg/kg BID oral, Day 15, 6 h; read-out: Mean Choroid-RPE concentration
reported_endpoint: concentration at 6 h (ng/g)

INSERT INTO assay_data (molecule, reported_endpoint, readout_number) VALUES
  ('CC(=O)c1nn(CC(=O)N2C[C@H](F)C[C@H]2C(=O)Nc2cccc(Br)n2)c2ccc(-c3cnc(C)nc3)cc12 [Compound 1]', 'concentration at 6 h', 4370);
